Target: human TNFα (Homo sapiens, UniProt P01375)
Construct: purchased Biosource, Camarillo, Calif
Sequence (P01375 77-233 limits assumed): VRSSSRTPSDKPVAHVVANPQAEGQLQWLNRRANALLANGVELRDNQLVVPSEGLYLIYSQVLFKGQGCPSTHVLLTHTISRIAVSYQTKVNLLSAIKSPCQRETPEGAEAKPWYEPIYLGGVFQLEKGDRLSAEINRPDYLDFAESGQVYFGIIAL
Experiment: p55 receptor/IgG fusion protein binding assay (inhibition of TNFα capture by p55-Ig coated plate)
Settings: TNFα 25 ng/ml preincubated with peptide, read-out: IC50 (concentration necessary to inhibit TNFα by 50%), inhibition of binding of TNFα to p55TNFr-IgG chimeric construct
Method: This assay was designed to identify peptides which bind to human TNFα and thereby prevent the capture of the TNFα by a microtiter plate coated with p55-Ig fusion protein. A constant concentration of human TNFα is preincubated with the test peptide and then incubated on the p55-Ig coated microtiter wells. Bound TNFα is detected using a specific antisera and an alkaline phosphatase-conjugated probe. […]
No end group written: not given here.
Give measured pIC50 for each item. Keep answers brief.
Expect pIC50 as a plain number equal to -log10 of the molar concentration.

Field pIC50 (entry "MVYPGLQEPWLHSMY-NH2" ) reads 3.07

Field pIC50 (entry "QEPWLHSMYHGAAFQ-NH2" ) reads 3.51

Field pIC50 (entry "WLHSMYHGAAFQLTQ-NH2" ) reads 3.32

Field pIC50 (entry "YLAHEVQLFSSQYPF-NH2" ) reads 3.43

Field pIC50 (entry "PGLQEPWLHSMYHGA-NH2" ) reads 3.22
